- Test system: plasmodium yoelii sporozoites
- method-summary: Protection from sporozoite challenge, TCBL derG in inbred mice (Tables 5, 6)
- Assay type: in vivo
- details: A/J mice, dose 25 μg; Table 5
Ends that are not written are not given here.
property: Protection (%)

Reference set, count: 4
> print(dat)
                                  substance                  tested.system        property  measurement
1  DLLKNGERIEKVEGGG [J, short fragment from β2-microglobulin (a.a. 38-50)]  plasmodium yoelii sporozoites  Protection (%)        (10%)
2  DGQEEKAGVVSTGLIGGGamide (DGQEEKAGVVSTGLIGGG-NH2) [derG, modified fragment from MHC II β-chain (a.a.135-149)]  plasmodium yoelii sporozoites  Protection (%)       (100%)
3         SFPMNEESPLGFSPEEMEAVASKFR [GF/SF]  plasmodium yoelii sporozoites  Protection (%)       (100%)
4  DLLKNGERIEKVEGGG SFPMNEESPLGFSPEEMEAVASKFR [J-GF/SF]  plasmodium yoelii sporozoites  Protection (%)       (100%)

We now examine a further substance.
# assay system plasmodium yoelii sporozoites: give Protection (%) of DGQEEKAGVVSTGLIGGGSFPMNEESPLGFSPEEMEAVASKFR [derG-GF/SF] (100%)

----------
- Test system: IFN-γ
- method-summary: Serum IFN-γ by ELISA
- Type: in vivo, mouse
- details: A/J mice, dose 25 μg; sera pooled 15 days post challenge
Ends that are not written are not given here.
property: IFN-γ serum

# assay system IFN-γ: give IFN-γ serum of DGQEEKAGVVSTGLIGGGSFPMNEESPLGFSPEEMEAVASKFR [derG-GF/SF] 6,000 pg/mL

# assay system IFN-γ: give IFN-γ serum of DLLKNGERIEKVEGGG SFPMNEESPLGFSPEEMEAVASKFR [J-GF/SF] 4,000 pg/mL

# assay system IFN-γ: give IFN-γ serum of DGQEEKAGVVSTGLIGGGamide (DGQEEKAGVVSTGLIGGG-NH2) [derG, modified fragment from MHC II β-chain (a.a.135-149)] 18,000 pg/mL

# assay system IFN-γ: give IFN-γ serum of SFPMNEESPLGFSPEEMEAVASKFR [GF/SF] 12,500 pg/mL
